# TARGET: STING (Stimulator of Interferon Genes) (Homo sapiens, UniProt Q86WV6, G230A/H232R/R293Q/R71H)
# Construct: host or cells: THP-1-Lucia ISG cells (human monocytic line)
# Sequence (Q86WV6 whole entry R71H/G230A/H232R/R293Q): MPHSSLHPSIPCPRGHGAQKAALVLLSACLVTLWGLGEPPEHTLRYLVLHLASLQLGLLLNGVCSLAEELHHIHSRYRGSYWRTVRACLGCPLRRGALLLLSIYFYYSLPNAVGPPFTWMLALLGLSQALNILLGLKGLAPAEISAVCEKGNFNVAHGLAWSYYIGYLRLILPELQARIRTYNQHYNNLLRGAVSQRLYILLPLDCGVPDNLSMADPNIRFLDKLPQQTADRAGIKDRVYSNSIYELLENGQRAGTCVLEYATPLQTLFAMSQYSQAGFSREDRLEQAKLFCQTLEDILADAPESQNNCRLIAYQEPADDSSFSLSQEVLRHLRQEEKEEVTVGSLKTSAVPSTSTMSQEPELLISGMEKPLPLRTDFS
# TEST_DESCRIPTION: ISG-LUC activation assay (ISRE-Luciferase assay in THP-1 Lucia ISG reporter cells)
# Format: cell-based
# CONDITION_PARAMETERS: THP-1 Lucia ISG cells, 24 hours, luciferase reporter; read-out: ISG-LUC activation assay (EC50)
Each record is given yes (1) if its reported EC50 is strictly below 5 µM. Records at or above 5 µM are given no (0).

> print(dat)
                                    compound  assigned.class
 1  CCOC(=O)C1=C(NC(=O)c2ccc(-n3ccnc3)nn2)CCCC1 [Compound 112]         yes (1)
 2  COC(=O)c1cc(C)c(F)cc1NC(=O)c1ccc(-n2ccnc2)nn1 [Compound 50]         yes (1)
 3  COC(=O)c1ccccc1NC(=O)c1ccc(-n2ccnc2)nn1 [Compound 162]         yes (1)
 4  CCOC(=O)C1=C(NC(=O)c2ccc(-n3ccnc3)nn2)CCC(C)C1 (stereo not drawn) [Compound 67]         yes (1)
 5  Cc1cc(C(=O)O)c(NC(=O)c2ccc(-n3ccnc3)nn2)cc1C(F)(F)F [Compound 102]          no (0)
 6  COC(=O)c1cc(Cl)c(Br)c(F)c1NC(=O)c1ccc(-n2ccnc2)nn1 [Compound 60]         yes (1)
 7  COC(=O)c1cc(F)c(Br)cc1NC(=O)c1ccc(-n2ccnc2)nn1 [Compound 58]         yes (1)
 8  COC(=O)c1c(F)ccc(F)c1NC(=O)c1ccc(-n2ccnc2)nn1 [Compound 3]          no (0)
 9  CN(O)C(=O)c1cc(F)c(F)cc1NC(=O)c1ccc(-n2ccnc2)nn1 [Compound 147]          no (0)
10  COC(=O)c1cc(Cl)c(Cl)cc1NC(=O)c1ccc(-n2ccnc2)nn1 [Compound 34]         yes (1)
11  COC(=O)c1nc(OC)ncc1NC(=O)c1ccc(-n2ccnc2)nn1 [Compound 71]         yes (1)
12  O=C(O)C1=C(NC(=O)c2ccc(-n3ccnc3)nn2)CCCC1 [Compound 130]          no (0)
13  CCOC(=O)c1cc2c(nc1NC(=O)c1ccc(-n3ccnc3)nn1)CCN(C)C2 [Compound 116]         yes (1)
14  COC(=O)c1cc(F)c(C)nc1NC(=O)c1ccc(-n2ccnc2)nn1 [Compound 149]          no (0)
15  COC(=O)c1cc2c(cc1NC(=O)c1ccc(-n3ccnc3)nn1)OCO2 [Compound 98]         yes (1)
16  COC(=O)c1cc(NC(=O)c2ccc(-n3ccnc3)nn2)cc(F)c1F [Compound 10]         yes (1)
17  O=C(Nc1cc(C(F)(F)F)ccc1C(=O)O)c1ccc(-n2ccnc2)nn1 [Compound 86]          no (0)
18  COCC(=O)c1nc(Cl)ncc1NC(=O)c1ccc(-n2ccnc2)nn1 [Compound 75]         yes (1)
